experiment-notes: Long term storage stability studies: HPLC, solutions stored at RT and 4° C. for up to 4 months
measurement-setup: greatest percentage change over the 4 month testing period; † non-significant, * significant, ‡ transient at 2 weeks
measured-property: Vitamin degradation, Storage 4° C. (% *)

(a) Nc1nc2ncc(CNc3ccc(C(=O)N[C@@H](CCC(=O)O)C(=O)O)cc3)nc2c(=O)[nH]1
(b) Cc1cc2nc3c(=O)[nH]c(=O)nc-3n(C[C@H](O)[C@H](O)[C@H](O)CO)c2cc1C
## Input Which record shows the lower Vitamin degradation, Storage 4° C.: the first, a , or the second, b ? Indicate your choice by writing its label.
## Output b

---

experiment-notes: Long term storage stability studies: HPLC, solutions stored at RT and 4° C. for up to 4 months
measurement-setup: storage at RT and 4° C. for up to 4 months
measured-property: Comment (long term storage stability)

- molecule: "Cc1ncc(C[n+]2csc(CCO)c2C)c(N)n1"
  measured-property: "Comment (long term storage stability)"
  result: "Stable for 4 months"
- molecule: "NC(=O)c1cccnc1 [Vitamin B3, niacinamide]"
  measured-property: "Comment (long term storage stability)"
  result: "Stable for 4 months"
- molecule: "O=C(O)CCCC[C@@H]1SC[C@@H]2NC(=O)N[C@@H]21"
  measured-property: "Comment (long term storage stability)"
  result: "Stable for 4 months"

---

experiment-notes: Long term storage stability studies: HPLC, solutions stored at RT and 4° C. for up to 4 months
measurement-setup: greatest percentage change over the 4 month testing period; † non-significant, * significant, ‡ transient at 2 weeks
measured-property: Vitamin degradation, Storage RT (% *)

(a) Nc1nc2ncc(CNc3ccc(C(=O)N[C@@H](CCC(=O)O)C(=O)O)cc3)nc2c(=O)[nH]1
(b) Cc1cc2nc3c(=O)[nH]c(=O)nc-3n(C[C@H](O)[C@H](O)[C@H](O)CO)c2cc1C
## Input Of a and b , which one carries the higher reported Vitamin degradation, Storage RT? Indicate your choice by writing its label.
## Output b
(b: −24.7 % *, a: −100.0 % *)

---

experiment-notes: Heat stability studies: HPLC peak area change after heating, hot water or hot coffee
Assay type: physicochemical
measurement-setup: heating to either 80° C. or 100° C. for 15 minutes
Excerpt: Vitamins were divided into two groups, depending on their solubility. “High concentration” vitamins were sufficiently soluble to be detected by the. HPLC analysis after 1/250 dilution. “Low concentration” vitamins were not sufficiently soluble and could not be detected after 1/250 dilution and therefore a different procedure was adopted for these compounds as described below. High concentration vitamin (B1, B3, B5, B6) solutions […]
measured-property: Effect of heating solutions on vitamin concentration

- molecule: "NC(=O)c1cccnc1 [Vitamin B3, niacinamide]"
  result: "not affected"
- molecule: "Cc1ncc(C[n+]2csc(CCO)c2C)c(N)n1 [Vitamin B1, Thiamine]"
  result: "not affected"
- molecule: "Cc1ncc(CO)c(CO)c1O.Cl [Vitamin B6, pyroxidine hydrochloride]"
  result: "not affected"

---

experiment-notes: Long term storage stability studies: HPLC, solutions stored at RT and 4° C. for up to 4 months
measurement-setup: greatest percentage change over the 4 month testing period; † non-significant, * significant, ‡ transient at 2 weeks
measured-property: Vitamin degradation, Storage 4° C.

Just so you know, measured Vitamin degradation, Storage 4° C. for `O=C(O)CCCC[C@@H]1SC[C@@H]2NC(=O)N[C@@H]21` came out at −27.4% ‡
